Origin of measurements: patent US20220363770A1

We begin with a simple list: items and their reported Normalized Binding Signal/Display Signal (B/D).
Molecular target: T1, human PAC1 receptor extracellular domain (ECD) (human, UniProt P41586 24-153)
T1 construct: also called PAC1 receptor ECD; PAC1 ECD
T1 sequence: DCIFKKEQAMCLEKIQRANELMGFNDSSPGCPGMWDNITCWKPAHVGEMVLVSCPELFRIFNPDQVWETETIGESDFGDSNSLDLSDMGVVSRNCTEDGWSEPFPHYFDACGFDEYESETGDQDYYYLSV
Test: yeast-displayed Fab, FACS, 10 nM PAC1 receptor ECD
Report as a plain number; the unit ratio is understood.

binder	result.value
anti-CGRP receptor variant 04, yeast-displayed Fab (Fab, V domains shown, also called Variant Ab ID 04) VH: QVQLVESGGGVVQPGRSLRLSCAASGFTFSSFGMHWVRQAPGKGLEWVAVISFDGSIKYSVDSVKGRFTISRDNSKNTLFLQMNSLRAEDTAVYYCARDRLNYYRSFGYYGYHYYGMAVWGQGTTVTVSS VL: QSVLTQPPSVSAAPGQKVTISCSGSSSNIGNNYVSWYQQLPGTAPKLLIYDNNKRPSGIPDRFSGSKSGTSATLGITGLQTGDEADYYCGTWDSRLSAVVFGGGTKLTVLG	0.12

We now examine a further binder.
Normalized Binding Signal/Display Signal (B/D) for anti-CGRP receptor variant 06, yeast-displayed Fab (Fab, V domains shown, also called Variant Ab ID 06) VH: QVQLVESGGGVVQPGRSLRLSCAASGFTFSSFGMHWVRQAPGKGLEWVAVISFDGSIKYSVDSVKGRFTISRDNSKNTLFLQMNSLRAEDTAVYYCARDRLNYYESSGYYHYKYYGMAVWGQGTTVTVSS VL: QSVLTQPPSVSAAPGQKVTISCSGSYSNIGRKSVSWYQQLPGTAPKLLIYDNNKRPSGIPDRFSGSKSGTSATLGITGLQTGDEADYYCGTWDSRLSAVVFGGGTKLTVLG is 0.1
